molecular target: human TRPA1 (Homo sapiens); construct: expressed in transfected cells; test: Cell-based functional intracellular calcium ([Ca2+]i) assay, Fluo-4/Fluo-8, FlexStation, challenge with reference TRPA1 agonist (FFA, AITC or 4-HNE); settings: HEK293 cells expressing human TRPA1; IC50 class after addition of reference TRPA1 agonist (FFA, AITC or 4-HNE); read-out: human TRPA1-HEK Activity
MEASURED_ENDPOINT: IC50

INSERT INTO measurements (compound, measured_endpoint, observed_measurement) VALUES
  ('O=C(Nc1ccc2c(c1)OC(F)(F)O2)c1cc(-c2ccncc2)n(-c2ccc(F)c(F)c2)n1', 'IC50', '5 to 25 µM');

Dear reader, for each entry below, please note its IC50.
1. O=C1OC2(CCN(C(=O)c3cc(-c4ccncc4)n(-c4ccc(F)c(F)c4)n3)CC2)c2ccccc21
2. Cc1c(C(=O)N2CCC3(CC2)C(=O)NCN3c2ccc(F)cc2)nn(-c2ccc(C(F)(F)F)c(F)c2)c1-c1cccnc1
3. Cn1c(=O)c(=O)n(C)c2cc(NC(=O)c3cc(-c4ccncc4)n(-c4cnccn4)n3)ccc21
4. CC(C)(C)c1ccc(-n2nc(C(=O)N3CCC4(CC3)C(=O)NCN4c3ccc(F)c(F)c3)cc2-c2cccnc2)cc1
5. N#Cc1cc(C(F)(F)F)ccc1-n1nc(C(=O)N2CCC3(CC2)C(=O)NCN3c2ccc(F)cc2)cc1-c1cccnc1
6. CN1C(=O)NC2(CCN(C(=O)c3cc(-c4ccncc4)n(-c4ccc(C(F)(F)F)c(F)c4)n3)CC2)C1=O
7. O=C(c1cc(-c2cccnc2)n(-c2cc(F)c(F)c(F)c2)n1)N1CCC(n2c(=O)[nH]c3ccc(F)c(F)c32)CC1
8. O=C(Nc1ccc2c(c1)OC(F)(F)O2)c1cc(-c2ccncc2)n(-c2cnccn2)n1

> 25 µM
0.001 to 5 µM
> 25 µM
0.001 to 5 µM
0.001 to 5 µM
> 25 µM
0.001 to 5 µM
5 to 25 µM

* * *

target: human TRPA1 (Homo sapiens, UniProt O75762); construct: expressed in transfected cells; experiment: Cell-based functional intracellular calcium ([Ca2+]i) assay, Fluo-4/Fluo-8, FlexStation, challenge with reference TRPA1 agonist (FFA, AITC or 4-HNE); details: HEK293 cells expressing human TRPA1; IC50 class after addition of reference TRPA1 agonist (FFA, AITC or 4-HNE); read-out: human TRPA1-HEK Activity
Sequence (O75762 whole entry): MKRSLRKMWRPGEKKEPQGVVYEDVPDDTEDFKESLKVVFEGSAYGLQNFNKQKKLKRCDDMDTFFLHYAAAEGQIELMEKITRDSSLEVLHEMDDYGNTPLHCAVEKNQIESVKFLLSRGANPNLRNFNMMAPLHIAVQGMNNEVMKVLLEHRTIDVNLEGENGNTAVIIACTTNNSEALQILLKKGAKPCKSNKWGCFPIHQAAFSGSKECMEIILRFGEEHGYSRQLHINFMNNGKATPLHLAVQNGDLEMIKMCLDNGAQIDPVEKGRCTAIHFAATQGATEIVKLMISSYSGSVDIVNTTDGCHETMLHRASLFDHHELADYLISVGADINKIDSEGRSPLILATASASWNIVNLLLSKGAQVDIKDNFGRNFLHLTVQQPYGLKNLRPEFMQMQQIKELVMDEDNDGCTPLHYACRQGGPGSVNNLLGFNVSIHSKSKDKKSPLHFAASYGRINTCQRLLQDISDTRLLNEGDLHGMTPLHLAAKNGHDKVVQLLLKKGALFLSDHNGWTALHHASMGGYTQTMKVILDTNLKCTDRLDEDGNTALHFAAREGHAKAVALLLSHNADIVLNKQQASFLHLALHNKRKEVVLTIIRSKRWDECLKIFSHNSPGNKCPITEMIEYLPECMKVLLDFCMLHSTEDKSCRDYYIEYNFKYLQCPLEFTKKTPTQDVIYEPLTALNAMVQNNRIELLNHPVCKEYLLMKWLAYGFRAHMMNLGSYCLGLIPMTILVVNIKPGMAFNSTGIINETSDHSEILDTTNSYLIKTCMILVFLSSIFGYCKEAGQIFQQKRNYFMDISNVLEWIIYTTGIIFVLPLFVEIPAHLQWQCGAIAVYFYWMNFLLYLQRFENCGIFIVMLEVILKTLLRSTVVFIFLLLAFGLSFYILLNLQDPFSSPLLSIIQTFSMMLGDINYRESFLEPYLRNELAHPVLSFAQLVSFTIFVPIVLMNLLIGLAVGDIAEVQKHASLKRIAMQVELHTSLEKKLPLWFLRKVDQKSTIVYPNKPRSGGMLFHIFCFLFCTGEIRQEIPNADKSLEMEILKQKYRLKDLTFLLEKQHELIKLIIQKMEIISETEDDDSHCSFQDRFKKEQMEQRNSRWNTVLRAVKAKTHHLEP
MEASURED_ENDPOINT: IC50

Example entries begin here.
INSERT INTO results (smiles_text, observed_measurement) VALUES
  ('O=C(c1cc(-c2ccncc2)n(-c2ccccc2)n1)N1CCC2(CCCO2)CC1', '> 25 µM'),
  ('O=C(c1cc(-c2ccncc2)n(-c2ccc(C(F)(F)F)c(F)c2)n1)N1CCC2(CC1)SCCS2', '> 25 µM');

Batch: IC50 for all items listed.
1. O=C(Nc1ccc2c(c1)OC(F)(F)O2)c1cc(-c2ccncc2)n(-c2ccc(C(F)(F)F)cc2)n1
2. O=C1Nc2ncccc2C2(CCN(C(=O)c3cc(-c4cccnc4)n(-c4ccc(F)c(C(F)(F)F)c4)n3)CC2)O1

> 25 µM
0.001 to 5 µM

* * *

biological target: human TRPA1 (Homo sapiens); construct: expressed in transfected cells; assay: Cell-based functional intracellular calcium ([Ca2+]i) assay, Fluo-4/Fluo-8, FlexStation, challenge with reference TRPA1 agonist (FFA, AITC or 4-HNE); details: HEK293 cells expressing human TRPA1; IC50 class after addition of reference TRPA1 agonist (FFA, AITC or 4-HNE); read-out: human TRPA1-HEK Activity
pIC50: −log10 of the molar value.
Exercise: state measured pIC50 for each of the compounds provided.

Would you please look over these solved cases?
INSERT INTO measurements (compound, measured_endpoint, observed_measurement) VALUES
  ('O=C1OC2(CCN(C(=O)c3cc(-c4ccncc4)n(-c4ccc(C(F)(F)F)nc4)n3)CC2)c2ccc(Cl)cc21 [Compound 124]', 'pIC50', '< 4.60'),
  ('CN1C(=O)NC2(CCN(C(=O)c3cc(-c4ccncc4)n(-c4ccc(C(F)(F)F)cc4)n3)CC2)C1=O [Compound 75]', 'pIC50', '< 4.60'),
  ('N#Cc1cc2[nH]c(=O)n(C3CCN(C(=O)c4cc(-c5cccnc5)n(-c5cc(F)c(F)c(F)c5)n4)CC3)c2cc1F [Compound 235]', 'pIC50', '5.30 to 9.00'),
  ('O=C(c1cc(-c2cccnc2)n(-c2ccc(C(F)(F)F)c(F)c2)n1)N1CCC2(CC1)C(=O)NCN2c1cc(F)c(F)c(F)c1 [Compound 186]', 'pIC50', '5.30 to 9.00'),
  ('Cc1cc(N2CNC(=O)C23CCN(C(=O)c2cc(-c4cccnc4)n(-c4ccc(C#N)c(F)c4)n2)CC3)cc(C)c1F [Compound 329]', 'pIC50', '5.30 to 9.00');

Record pIC50 per entry; entries follow.
1. Cn1c(=O)c(=O)n(C)c2cc(NC(=O)c3cc(-c4ccncc4)n(-c4ccc(C(F)(F)F)cc4)n3)ccc21 [Compound 69]
2. O=C(c1nn(-c2ccc(F)c(C(F)(F)F)c2)c2c1CCc1ncccc1-2)N1CCC2(CC1)C(=O)NCN2c1ccc(F)cc1 [Compound 313]

< 4.60
5.30 to 9.00

// provenance: patent US9951046B2
